System: NCI-H1417 complex spheroids, growth % test/control
Test: Anticancer human tumor NCI-H1417 cell line growth inhibition [Asc];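 also: spheroids exposed to compounds for 7 days; 100% = DMSO vehicle control wells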
Conditions: second compound 1 µM; first compound 1 µM; hits give low values
assay-readout: viability, T/C (%)
Write the answer as a number in %, unit excluded.

| compound | assay-readout | reported |
| --- | --- | --- |
| O=C(c1cc(Cc2n[nH]c(=O)c3ccccc23)ccc1F)N1CCN(C(=O)C2CC2)CC1 + Cc1c(S(C)(=O)=O)c(-c2cc(F)cc(N3CCN(c4ccc(NS(=O)(=O)c5ccc(NC(CCN6CCC(C(=O)OCCCP(=O)(O)O)CC6)CSc6ccccc6)c(S(=O)(=O)C(F)(F)F)c5)cc4)CC3)c2)c(-c2ccc(Cl)cc2)n1C(C)C | viability, T/C | 5.49 |

Next, consider the following compound.
Qu. Can you look up the measured viability, T/C of O=C(c1ccc(F)c(F)c1Nc1ccc(I)cc1F)N1CC(O)([C@@H]2CCCCN2)C1 + Cc1c(S(C)(=O)=O)c(-c2cc(F)cc(N3CCN(c4ccc(NS(=O)(=O)c5ccc(NC(CCN6CCC(C(=O)OCCCP(=O)(O)O)CC6)CSc6ccccc6)c(S(=O)(=O)C(F)(F)F)c5)cc4)CC3)c2)c(-c2ccc(Cl)cc2)n1C(C)C for me?
Ans. 2.04
